Tested On: HLA-A*02:06
Procedure Summary: IEDB peptide-MHC binding, purified MHC/competitive/fluorescence; filed as Kd, often an IC50 or EC50 that approximates it; bounds were set here for any values at or beyond the usual limits of such assays
Test Settings: source organism: Pasteurella multocida subsp. multocida str. Pm70
pKd: −log10 of the molar value.
Measurement Type: pKd

Given the sequence `LLKDLMPFV` , what is its reported pKd?
≥ 10.00

* * *

Tested On: HLA-B*35:01
Procedure Summary: IEDB peptide-MHC binding, purified MHC/competitive/fluorescence; bounds were set here for any values at or beyond the usual limits of such assays
Test Settings: source organism: Rattus norvegicus
pIC50: −log10 of the molar value.
Measurement Type: pIC50

Given the sequence `SLLERGQQLGV` , what is its reported pIC50?
≤ 4.70

* * *

Tested On: HLA-A*03:01
Procedure Summary: IEDB peptide-MHC binding, purified MHC/direct/fluorescence; filed as Kd, often an IC50 or EC50 that approximates it; bounds were set here for any values at or beyond the usual limits of such assays
Test Settings: source organism: Calabazo virus
pKd: −log10 of the molar value.
Measurement Type: pKd

Query for HLA-A*03:01: what pKd does the record show for `RMMATKDSF` ?
≤ 4.70

* * *

Tested On: HLA-B*07:02
Procedure Summary: IEDB peptide-MHC binding, purified MHC/competitive/radioactivity; filed as Kd, often an IC50 or EC50 that approximates it; bounds were set here for any values at or beyond the usual limits of such assays
Test Settings: source organism: SARS coronavirus Tor2
Measurement Type: Kd (nM)
# number only, unit nM dropped from output

Given the sequence `SPLFLIVAA` , what is its reported Kd?
481

* * *

Tested On: HLA-A*02:01
Procedure Summary: IEDB peptide-MHC binding, purified MHC/direct/fluorescence; filed as Kd, often an IC50 or EC50 that approximates it; bounds were set here for any values at or beyond the usual limits of such assays
Test Settings: source organism: Mycobacterium tuberculosis
pKd: −log10 of the molar value.
Measurement Type: pKd

Please review the following examples before continuing.
>  <Sequence Chain>
YLPRFLFGV

>  <Measured>
8.74

$$$$
>  <Sequence Chain>
ALYLLDGLR

>  <Measured>
≤ 4.70

$$$$
>  <Sequence Chain>
VVEPPRQLV

>  <Measured>
≤ 5.30

$$$$

Given the sequence `GPRGRHVVL` , what is its reported pKd?
≤ 4.70

* * *

Tested On: HLA-B*27:05
Procedure Summary: IEDB peptide-MHC binding, purified MHC/direct/fluorescence; filed as Kd, often an IC50 or EC50 that approximates it; bounds were set here for any values at or beyond the usual limits of such assays
Test Settings: source organism: Influenza A virus (A/goose/Guangxi/1097/2004(H5N1))
Measurement Type: Kd

Query for HLA-B*27:05: what Kd does the record show for `KYTSGRQEK` ?
≥ 20 µM

* * *

Tested On: HLA-B*57:01
Procedure Summary: IEDB peptide-MHC binding, purified MHC/direct/fluorescence; filed as Kd, often an IC50 or EC50 that approximates it; bounds were set here for any values at or beyond the usual limits of such assays
Test Settings: source organism: Hepatovirus A
Measurement Type: Kd

Given the sequence `YMYAVSGAL` , what is its reported Kd?
≥ 20 µM

* * *

Tested On: HLA-B*46:01
Procedure Summary: IEDB peptide-MHC binding, purified MHC/direct/fluorescence; filed as Kd, often an IC50 or EC50 that approximates it; bounds were set here for any values at or beyond the usual limits of such assays
Test Settings: source organism: Influenza A virus (A/G.H/HK/793.1/02 (H5N1))
Measurement Type: Kd

Given the sequence `RRKTNLYGF` , what is its reported Kd?
≥ 20 µM
